Entries annotated with measured folding stability dG
B1: 6YSE (parent)
chain: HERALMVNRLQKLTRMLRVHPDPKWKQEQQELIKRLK

variants of: B1; assay: folding stability dG (cDNA display proteolysis); higher = more stable; conditions: PBS, room temperature
Note: unit kcal/mol is implicit; provide only the numeric part.

Record excerpt, results attached:
Q30H : 0.978
R3M : 0.994
K24S : 0.97
V7K : 1.05
D22E : 0.749

stdin: Which measured folding stability dG value corresponds to P21V ?
stdout: 0.805

stdin: Which measured folding stability dG value corresponds to K37G ?
stdout: 1.27

stdin: Which measured folding stability dG value corresponds to M6R ?
stdout: 0.36

stdin: Which measured folding stability dG value corresponds to W25M ?
stdout: 1.71

stdin: Which measured folding stability dG value corresponds to N8I ?
stdout: 1.84

stdin: Which measured folding stability dG value corresponds to L13V ?
stdout: 0.655

stdin: Which measured folding stability dG value corresponds to L10V ?
stdout: 0.163

stdin: Which measured folding stability dG value corresponds to E31F ?
stdout: 1.01

stdin: Which measured folding stability dG value corresponds to V7D ?
stdout: -0.144

stdin: Which measured folding stability dG value corresponds to T14K ?
stdout: 1.34

stdin: Which measured folding stability dG value corresponds to M6V ?
stdout: 0.718

stdin: Which measured folding stability dG value corresponds to V7T ?
stdout: 0.591

stdin: Which measured folding stability dG value corresponds to L5G ?
stdout: 1.16

stdin: Which measured folding stability dG value corresponds to P23N ?
stdout: 0.238
